- Target entity: PDZD4; further: reference of the scale not given here
- Measurement description: pooled miR-30 sensor sort-seq; sequence = guide strand
- Measurement setup: shRNA
Response key: met means sensor-assay potency score (higher = more potent) >= -0.8; not met means sensor-assay potency score (higher = more potent) < -0.8.

Example results:
TCGTCGTCGGTCGTCATACCGC | not met
TACACCGTTAATCTGGATGATG | not met
TCATCCAGGAAGTCATCCCGGT | met

Is sensor-assay potency score (higher = more potent) for TTCACTTTCCACTCCATGCGCG at or above -0.8?
met

Is sensor-assay potency score (higher = more potent) at least -0.8? Consider TTGATCTCCAGGAGCTCACGGT
not met

Form field: sensor-assay potency score (higher = more potent) at least -0.8? Entry: TCACTTTGTACTGCTCCTCCGG
not met
